B1: Far upstream element-binding protein 3, residues 75 to 150; numbered along this chain, Q96I24 (parent)
chain: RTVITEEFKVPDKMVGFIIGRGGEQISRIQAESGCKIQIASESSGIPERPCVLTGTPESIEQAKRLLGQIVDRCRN

variants of: B1; experiment: abundance fitness (aPCA) (normalised: wild type 0, dead -1); higher = more abundant; growth selection in yeast, the domain comes from the species named; conditions: Homo sapiens
Definition: the class of an entry is the range in bin 0 = under -0.1, bin 1 = from -0.1 up to -0.05, bin 2 = -0.05 and over that contains its abundance fitness.

Lab note: which band did I26T land in? bin 0

Lab note: which band did C74E land in? bin 2

Lab note: which band did I39L land in? bin 0

Lab note: which band did T56Q land in? bin 0

Lab note: which band did A31Q land in? bin 2

Lab note: which band did M14Y land in? bin 0

Lab note: which band did Q25N land in? bin 2

Lab note: which band did P57M land in? bin 0

Lab note: which band did V71Q land in? bin 2

Lab note: which band did P11Q land in? bin 0

Lab note: which band did G55K land in? bin 0

Lab note: which band did Q38A land in? bin 2

Lab note: which band did E32M land in? bin 2

Lab note: which band did E61D land in? bin 2

Lab note: which band did G23Q land in? bin 2

Lab note: which band did I29M land in? bin 0

Lab note: which band did A63K land in? bin 0

Lab note: which band did P47E land in? bin 2

Lab note: which band did R28T land in? bin 1

Lab note: which band did F17W land in? bin 1

Lab note: which band did Q69M land in? bin 2

Lab note: which band did K13S land in? bin 2

Lab note: which band did T2P land in? bin 0

Lab note: which band did E6T land in? bin 1

Lab note: which band did N76R land in? bin 2

Lab note: which band did A31E land in? bin 2

Lab note: which band did G68A land in? bin 1

Lab note: which band did I26W land in? bin 0

Lab note: which band did R1D land in? bin 2

Lab note: which band did P11F land in? bin 0

Lab note: which band did V71M land in? bin 2

Lab note: which band did S41T land in? bin 2

Lab note: which band did A31G land in? bin 1

Lab note: which band did S43G land in? bin 2

Lab note: which band did E58G land in? bin 2

Lab note: which band did V15M land in? bin 1

Lab note: which band did L53R land in? bin 0

Lab note: which band did S44G land in? bin 2

Lab note: which band did I37Y land in? bin 0

Lab note: which band did E48A land in? bin 0

Lab note: which band did E61R land in? bin 2

Lab note: which band did L67Q land in? bin 0

Lab note: which band did K9G land in? bin 2

Lab note: which band did G55V land in? bin 0

Lab note: which band did R75S land in? bin 2

Lab note: which band did R65D land in? bin 2

Lab note: which band did V10T land in? bin 0

Lab note: which band did E61S land in? bin 2

Lab note: which band did T54E land in? bin 1

Lab note: which band did G55R land in? bin 0

Lab note: which band did F8Y land in? bin 2

Lab note: which band did V71H land in? bin 0

Lab note: which band did G34I land in? bin 0

Lab note: which band did L67K land in? bin 0

Lab note: which band did L66V land in? bin 0

Lab note: which band did L66R land in? bin 1

Lab note: which band did E42T land in? bin 2

Lab note: which band did K36F land in? bin 0

Lab note: which band did P47H land in? bin 2

Lab note: which band did I29T land in? bin 0

Lab note: which band did I26E land in? bin 0

Lab note: which band did V52M land in? bin 2

Lab note: which band did V15H land in? bin 0

Lab note: which band did V71E land in? bin 1

Lab note: which band did L67W land in? bin 0

Lab note: which band did M14V land in? bin 0

Lab note: which band did I46K land in? bin 2

Lab note: which band did D72V land in? bin 1

Lab note: which band did I39P land in? bin 0

Lab note: which band did A40D land in? bin 2

Lab note: which band did P47Q land in? bin 1

Lab note: which band did I60F land in? bin 0

Lab note: which band did I18M land in? bin 1

Lab note: which band did T2H land in? bin 1

Lab note: which band did D72F land in? bin 0

Lab note: which band did G16R land in? bin 2

Lab note: which band did S43I land in? bin 2

Lab note: which band did N76T land in? bin 1

Lab note: which band did G68C land in? bin 1

Lab note: which band did A63N land in? bin 0

Lab note: which band did I18V land in? bin 1

Lab note: which band did I26Y land in? bin 0

Lab note: which band did K13R land in? bin 2

Lab note: which band did I19K land in? bin 1

Lab note: which band did R28Y land in? bin 0

Lab note: which band did C51E land in? bin 0

Lab note: which band did G34F land in? bin 0

Lab note: which band did L53C land in? bin 0
